# target.system: CYP2C9 (Homo sapiens, UniProt P11712)
# Sequence (P11712 whole entry): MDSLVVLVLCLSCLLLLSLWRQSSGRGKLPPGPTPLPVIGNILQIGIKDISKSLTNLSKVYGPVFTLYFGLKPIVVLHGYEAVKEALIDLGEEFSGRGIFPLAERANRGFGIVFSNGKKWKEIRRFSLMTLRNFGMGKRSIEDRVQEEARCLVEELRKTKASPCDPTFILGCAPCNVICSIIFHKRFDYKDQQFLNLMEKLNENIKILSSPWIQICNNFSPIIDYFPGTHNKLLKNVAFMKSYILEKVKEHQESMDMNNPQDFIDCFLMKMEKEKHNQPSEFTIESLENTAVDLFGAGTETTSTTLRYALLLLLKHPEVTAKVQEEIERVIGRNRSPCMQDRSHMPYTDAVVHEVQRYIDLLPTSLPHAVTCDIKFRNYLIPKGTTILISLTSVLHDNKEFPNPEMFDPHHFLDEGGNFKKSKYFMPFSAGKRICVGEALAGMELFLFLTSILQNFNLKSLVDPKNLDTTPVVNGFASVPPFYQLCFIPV
# procedure.summary: biochemical
# assay.setup: Unbound dissociation constant (Ki,u), pathway CYP2C9; Ki * fu,inc
observation.type: Ki (µM)

> print(dat)
                                item.smiles  measurement
1  [H]/N=C(/NCCCCC)N/N=C/c1c[nH]c2ccc(OC)cc12         10.5

---

# target.system: CYP2C9 (Homo sapiens, UniProt P11712)
# procedure.summary: biochemical
# assay.setup: Dissociation constant (Ki), pathway CYP2C9
pKi: −log10 of the molar value.
observation.type: pKi

> print(dat)
                                   compound                          target.system  measurement
1  [H]/N=C(/NCCCCC)N/N=C/c1c[nH]c2ccc(OC)cc12 [Tegaserod]  CYP2C9 (Homo sapiens, UniProt P11712)         4.94

---

# target.system: CYP2D6 (Homo sapiens)
# Sequence (P10635 whole entry): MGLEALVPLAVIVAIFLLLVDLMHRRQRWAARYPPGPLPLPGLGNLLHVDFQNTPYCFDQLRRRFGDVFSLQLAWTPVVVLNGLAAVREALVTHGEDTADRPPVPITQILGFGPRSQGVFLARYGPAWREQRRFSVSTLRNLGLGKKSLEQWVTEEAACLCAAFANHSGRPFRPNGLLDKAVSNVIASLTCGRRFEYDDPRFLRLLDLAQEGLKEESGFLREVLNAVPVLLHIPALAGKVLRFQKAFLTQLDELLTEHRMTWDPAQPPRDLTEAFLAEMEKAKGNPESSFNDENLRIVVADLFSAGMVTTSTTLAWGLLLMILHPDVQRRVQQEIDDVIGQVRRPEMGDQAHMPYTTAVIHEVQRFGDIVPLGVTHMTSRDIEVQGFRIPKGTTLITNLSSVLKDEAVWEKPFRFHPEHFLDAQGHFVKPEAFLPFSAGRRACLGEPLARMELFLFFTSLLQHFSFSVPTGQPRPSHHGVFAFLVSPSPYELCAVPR
# procedure.summary: biochemical
# assay.setup: Unbound dissociation constant (Ki,u)
pKi: −log10 of the molar value.
observation.type: pKi

> print(dat)
                                   compound          target.system  measurement
1  CC(CN1c2ccccc2Sc2ccccc21)N(C)C (stereo not shown)  CYP2D6 (Homo sapiens)         6.66

---

# target.system: CYP2D6 (Homo sapiens)
# procedure.summary: biochemical
# assay.setup: Unbound dissociation constant (Ki,u), pathway CYP2D6; Ki * fu,inc
observation.type: Ki (nM)

> print(dat)
                                item.smiles  measurement
1  [H]/N=C(/NCCCCC)N/N=C/c1c[nH]c2ccc(OC)cc12          470
2              CCCN(CCC)CCc1cccc2c1CC(=O)N2          710

---

# target.system: CYP2D6 (Homo sapiens)
# procedure.summary: biochemical
# assay.setup: Dissociation constant (Ki), pathway CYP2D6
Listing of entries alongside the reported Ki.
observation.type: Ki (nM)

> print(dat)
                                   compound          target.system  measurement
1  CCCN(CCC)CCc1cccc2c1CC(=O)N2 [Ropinirole]  CYP2D6 (Homo sapiens)          850
2  [H]/N=C(/NCCCCC)N/N=C/c1c[nH]c2ccc(OC)cc12 [Tegaserod]  CYP2D6 (Homo sapiens)          510

---

# target.system: OATP1B2 (Rattus norvegicus, UniProt Q9QZX8)
# Sequence (Q9QZX8 whole entry): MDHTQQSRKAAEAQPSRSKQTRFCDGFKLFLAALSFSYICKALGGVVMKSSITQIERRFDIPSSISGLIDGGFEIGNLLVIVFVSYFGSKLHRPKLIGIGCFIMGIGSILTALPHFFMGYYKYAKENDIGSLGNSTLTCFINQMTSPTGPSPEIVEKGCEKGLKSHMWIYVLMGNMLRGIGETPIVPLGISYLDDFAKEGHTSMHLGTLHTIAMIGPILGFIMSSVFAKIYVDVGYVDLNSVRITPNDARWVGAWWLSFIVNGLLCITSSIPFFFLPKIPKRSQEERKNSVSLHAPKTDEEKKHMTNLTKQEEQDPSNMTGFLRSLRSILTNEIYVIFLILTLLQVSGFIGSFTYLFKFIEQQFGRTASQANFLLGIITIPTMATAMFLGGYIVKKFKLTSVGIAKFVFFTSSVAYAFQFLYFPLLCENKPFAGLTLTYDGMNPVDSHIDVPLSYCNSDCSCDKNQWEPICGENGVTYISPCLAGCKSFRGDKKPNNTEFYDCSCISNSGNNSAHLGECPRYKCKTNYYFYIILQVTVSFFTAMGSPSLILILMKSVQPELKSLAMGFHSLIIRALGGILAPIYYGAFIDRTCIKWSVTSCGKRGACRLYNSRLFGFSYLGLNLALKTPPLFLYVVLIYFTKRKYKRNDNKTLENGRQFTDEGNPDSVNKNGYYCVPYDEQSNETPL
# procedure.summary: Inhibition of E217βDG active uptake in cryopreserved rat hepatocytes
observation.type: IC50 (µM)

> print(dat)
                                   compound  observation.type  unit.string  measurement
1     Cc1nnc2n1-c1ccc(Cl)cc1C(c1ccccc1)=NC2              IC50           µM         99.5
2  COc1ccc2[nH]c([S+]([O-])Cc3ncc(C)c(OC)c3C)nc2c1 (centres unmarked)              IC50           µM         84.3

---

# target.system: CYP2C19 (Homo sapiens, UniProt P33261)
# Sequence (P33261 whole entry): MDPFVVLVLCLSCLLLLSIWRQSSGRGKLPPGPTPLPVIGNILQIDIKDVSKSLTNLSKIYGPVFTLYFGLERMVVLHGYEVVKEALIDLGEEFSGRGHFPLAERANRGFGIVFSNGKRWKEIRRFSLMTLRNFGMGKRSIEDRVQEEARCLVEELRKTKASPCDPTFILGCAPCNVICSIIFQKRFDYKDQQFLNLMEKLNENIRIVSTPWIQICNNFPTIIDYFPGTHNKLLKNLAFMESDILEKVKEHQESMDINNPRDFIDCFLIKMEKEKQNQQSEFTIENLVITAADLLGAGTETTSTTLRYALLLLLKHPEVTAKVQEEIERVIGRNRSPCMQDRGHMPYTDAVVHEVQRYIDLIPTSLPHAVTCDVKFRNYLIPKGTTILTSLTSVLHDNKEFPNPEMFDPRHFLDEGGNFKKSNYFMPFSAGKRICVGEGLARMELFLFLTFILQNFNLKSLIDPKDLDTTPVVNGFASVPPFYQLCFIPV
# procedure.summary: Fluorometric CYP inhibition assay
# Assay type: biochemical
# assay.setup: Unbound dissociation constant (Ki,u), pathway CYP2C19; Ki * fu,inc
pKi: −log10 of the molar value.
observation.type: pKi

> print(dat)
                                item.smiles  measurement
1  [H]/N=C(/NCCCCC)N/N=C/c1c[nH]c2ccc(OC)cc12         5.07

---

# Tested on: rat L6 myotubes
# procedure.summary: Myotoxicity in rat L6 myotubes
# Assay type: cell-based
# assay.setup: 10 μM for 5 days, compared to DMSO control
Listed here: items and their measured myotube death.
observation.type: myotube death

> print(dat)
                                item.smiles  observation.type  measurement
1        Clc1ccc2c(c1)CCc1cccnc1C2=C1CCNCC1     myotube death  73.3 ± 1.1%
2  CCC(C)(C)C(=O)O[C@H]1C[C@@H](C)C=C2C=C[C@H](C)[C@H](CC[C@@H]3C[C@@H](O)CC(=O)O3)[C@H]21     myotube death  73.7 ± 2.6%
3  [H]/N=C(/NCCCCC)N/N=C/c1c[nH]c2ccc(OC)cc12     myotube death  97.9 ± 0.4%
4  CCC(C)(C)C(=O)O[C@H]1C[C@@H](C)C=C2C=C[C@H](C)[C@H](CC[C@@H](O)C[C@@H](O)CC(=O)O)[C@H]21     myotube death  33.0 ± 2.1%

---

Entries and their measured Inhibitor concentration ([I]) follow.
# procedure.summary: Peak plasma / gut / hepatic inlet concentration at the highest clinical dose
# Type: in vivo, human
# assay.setup: [I] equal to Cmax
observation.type: Inhibitor concentration ([I]) (µM)

> print(dat)
                                   compound               observation.type  measurement
1  CC(CN1c2ccccc2Sc2ccccc21)N(C)C (stereo not shown)  Inhibitor concentration ([I])        0.068
2  CCOC(=O)N1CCC(=C2c3ccc(Cl)cc3CCc3cccnc32)CC1  Inhibitor concentration ([I])        0.011
3              CCCN(CCC)CCc1cccc2c1CC(=O)N2  Inhibitor concentration ([I])        0.103
4  [H]/N=C(/NCCCCC)N/N=C/c1c[nH]c2ccc(OC)cc12  Inhibitor concentration ([I])        0.009

---

# procedure.summary: INPC cohort study: risk of myopathy after prescription of drug pairs
# assay.setup: drug 2 only; adjusted for age and sex
Doc: threshold 0.03 (exclusive). Items with Risk2 (myopathy risk for drug 2) beneath it return true; others return false.

> print(dat)
                                   compound  assigned.class
1  CCC(C)(C)C(=O)O[C@H]1C[C@@H](C)C=C2C=C[C@H](C)[C@H](CC[C@@H]3C[C@@H](O)CC(=O)O3)[C@H]21           false
2  [H]/N=C(/NCCCCC)N/N=C/c1c[nH]c2ccc(OC)cc12            true
3     Cc1nnc2n1-c1ccc(Cl)cc1C(c1ccccc1)=NC2            true
4              CCCN(CCC)CCc1cccc2c1CC(=O)N2            true
5  COc1ccc2[nH]c([S+]([O-])Cc3ncc(C)c(OC)c3C)nc2c1 (centres unmarked)           false

---

# target.system: OATP1B2 (Rattus norvegicus, UniProt Q9QZX8)
# procedure.summary: Inhibition of E217βDG active uptake in cryopreserved rat hepatocytes
# assay.setup: rat, cryopreserved rat hepatocytes, probe [3H] β-estradiol 17-β-D-glucuronide (E217βDG), 1 μM, 0.1 μCi
observation.type: inhibition at 3 min, 100 μM (%)

> print(dat)
                                   compound  measurement
1              CCCN(CCC)CCc1cccc2c1CC(=O)N2         23.7
2     Cc1nnc2n1-c1ccc(Cl)cc1C(c1ccccc1)=NC2         54.5
3  CC(CN1c2ccccc2Sc2ccccc21)N(C)C (centres unmarked)         17.7
4  COc1ccc2[nH]c([S+]([O-])Cc3ncc(C)c(OC)c3C)nc2c1 (centres unmarked)         60.1
5  [H]/N=C(/NCCCCC)N/N=C/c1c[nH]c2ccc(OC)cc12         24.6

---

# target.system: CYP2C19 (Homo sapiens)
# procedure.summary: Fluorometric CYP inhibition assay
# Format: biochemical
# assay.setup: Dissociation constant (Ki), pathway CYP2C19
observation.type: Ki

> print(dat)
                                item.smiles  observation.type  measurement
1  [H]/N=C(/NCCCCC)N/N=C/c1c[nH]c2ccc(OC)cc12                Ki       9.2 µM
